TARGET_ENTITY: UniProt Q14330
TEST: Agonist activity at Prolink1-tagged human GPR18 receptor expressed in CHO cells assessed as induction of beta-arrestin recruitment at 10 uM after 90 mins by beta-galactosidase based topcount luminescence analysis relative to control
Format: cell-based
REPORTED_PROPERTY: Activity (%)
# output: bare number, implied unit %

Record excerpt, results attached:
                    structure_smiles_string  measure_unit  result_value
0      CCCCCN1CCCn2c1nc1c2c(=O)n(C)c(=O)n1C             %            -1
1  COc1ccc(CCN2CCCn3c2nc2c3c(=O)n(C)c(=O)n2C)cc1OC             %           -39
2  COc1ccc(CCN2CCCn3c2nc2c3c(=O)n(C)c(=O)n2C)cc1             %            -2
3         CCN1CCCn2c1nc1c2c(=O)n(C)c(=O)n1C             %             2

Answer with the recorded Activity of `Cn1c(=O)c2c(nc3n2CCCN3CCc2ccc(Cl)cc2)n(C)c1=O` only. 14

Answer with the recorded Activity of `CCN(CC)CCN1CCCn2c1nc1c2c(=O)n(C)c(=O)n1C` only. 39

Answer with the recorded Activity of `Cn1c(=O)c2c(nc3n2CCN3c2ccc(O)cc2)n(C)c1=O` only. 22

Answer with the recorded Activity of `Cn1c(=O)c2c(nc3n2CCCN3Cc2ccc(Cl)cc2)n(C)c1=O` only. 6

Answer with the recorded Activity of `Cn1c(=O)c2c(nc3n2CCCN3CCc2ccccc2)n(C)c1=O` only. 2

Answer with the recorded Activity of `CCCCN1CCCn2c1nc1c2c(=O)n(C)c(=O)n1C` only. 26

Answer with the recorded Activity of `CCCn1c(=O)c2c(nc3n2CCCN3CCc2c[nH]c3ccccc23)n(CCC)c1=O` only. -12

----------
Catalogue of Activity readings, one per entry.
TARGET_ENTITY: G-protein coupled receptor 55 (Homo sapiens, UniProt Q9Y2T6)
Sequence (Q9Y2T6 whole entry): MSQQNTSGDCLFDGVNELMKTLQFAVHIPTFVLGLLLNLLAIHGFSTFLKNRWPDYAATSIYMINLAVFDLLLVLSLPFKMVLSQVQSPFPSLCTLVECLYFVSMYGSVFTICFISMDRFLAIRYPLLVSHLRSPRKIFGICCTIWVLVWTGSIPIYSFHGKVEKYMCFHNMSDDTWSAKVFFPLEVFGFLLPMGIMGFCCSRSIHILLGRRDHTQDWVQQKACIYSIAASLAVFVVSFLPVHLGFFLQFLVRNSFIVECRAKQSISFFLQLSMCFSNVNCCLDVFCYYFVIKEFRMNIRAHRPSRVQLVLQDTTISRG
TEST: Agonist activity at Prolink1-tagged human GPR55 receptor expressed in CHO cells assessed as induction of beta-arrestin recruitment at 10 uM after 90 mins by beta-galactosidase based topcount luminescence analysis relative to control
Format: cell-based
# output: bare number, implied unit %

>>> print(df.to_string())
                    structure_smiles_string                             target_entity  reported_property  measure_unit  result_value
0       CCCCN1CCCn2c1nc1c2c(=O)n(C)c(=O)n1C  G-protein coupled receptor 55 (Homo sapiens, UniProt Q9Y2T6)           Activity             %            -4
1      CCCCCN1CCCn2c1nc1c2c(=O)n(C)c(=O)n1C  G-protein coupled receptor 55 (Homo sapiens, UniProt Q9Y2T6)           Activity             %            10
2         CCN1CCCn2c1nc1c2c(=O)n(C)c(=O)n1C  G-protein coupled receptor 55 (Homo sapiens, UniProt Q9Y2T6)           Activity             %           -16
3  CCN(CC)CCN1CCCn2c1nc1c2c(=O)n(C)c(=O)n1C  G-protein coupled receptor 55 (Homo sapiens, UniProt Q9Y2T6)           Activity             %             4
4  Cn1c(=O)c2c(nc3n2CCCN3CCc2ccccc2)n(C)c1=O  G-protein coupled receptor 55 (Homo sapiens, UniProt Q9Y2T6)           Activity             %            16

System G-protein coupled receptor 55 (Homo sapiens, UniProt Q9Y2T6). Read-out Activity. Item `Cn1c(=O)c2c(nc3n2CCN3c2ccc(O)cc2)n(C)c1=O` . Report value. 13

----------
TARGET_ENTITY: N-arachidonyl glycine receptor (Homo sapiens)
TEST: Agonist activity at Prolink1-tagged human GPR18 receptor expressed in CHO cells assessed as induction of beta-arrestin recruitment after 90 mins by beta-galactosidase based topcount luminescence analysis
REPORTED_PROPERTY: EC50

In [3]: df
Out[3]:
                    structure_smiles_string  result_value
0  CCCn1c(=O)c2c(nc3n2CCCN3CCc2c[nH]c3ccccc23)n(CCC)c1=O       > 10 µM
1  COc1ccc(CCN2CCCn3c2nc2c3c(=O)n(C)c(=O)n2C)cc1OC       > 10 µM
2  Cn1c(=O)c2c(nc3n2CCCN3CCc2c[nH]c3ccccc23)n(C)c1=O      0.562 µM

Continue with the next molecule.
Answer with the recorded EC50 of `Cn1c(=O)c2c(nc3n2CCCN3CCc2ccccc2)n(C)c1=O` only. > 10 µM

----------
Catalogue of inhibition readings, one per entry.
TARGET_ENTITY: G-protein coupled receptor 55 (Homo sapiens, UniProt Q9Y2T6)
TEST: Antagonist activity at Prolink1-tagged human GPR55 receptor expressed in CHO cells assessed as inhibition of lysophosphatidylinositol-induced beta arrestin recruitment at 10 uM after 90 mins by beta-galactosidase based topcount luminescence analysis relative to control
Assay type: functional, cell-based
# output: bare number, implied unit %

>>> df
               structure_smiles_string  reported_property  result_value
0  COCCN1CCCn2c1nc1c2c(=O)n(C)c(=O)n1C         inhibition            -4

Answer with the recorded inhibition of `Cn1c(=O)c2c(nc3n2CCCN3Cc2ccc(Cl)cc2)n(C)c1=O` only. 1

Answer with the recorded inhibition of `Cn1c(=O)c2c(nc3n2CCCN3CCc2ccccc2)n(C)c1=O` only. -10

----------
TARGET_ENTITY: UniProt:Q14330
Sequence (Q14330 whole entry): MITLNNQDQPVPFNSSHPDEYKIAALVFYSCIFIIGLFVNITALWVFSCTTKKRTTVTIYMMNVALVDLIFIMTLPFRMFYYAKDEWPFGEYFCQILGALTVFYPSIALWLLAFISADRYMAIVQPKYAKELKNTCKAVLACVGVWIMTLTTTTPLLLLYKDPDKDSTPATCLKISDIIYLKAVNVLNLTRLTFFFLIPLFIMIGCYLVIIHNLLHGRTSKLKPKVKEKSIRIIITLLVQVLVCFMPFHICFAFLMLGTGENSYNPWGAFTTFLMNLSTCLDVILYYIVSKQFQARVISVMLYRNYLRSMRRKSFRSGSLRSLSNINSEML
TEST: Antagonist activity at Prolink1-tagged human GPR18 receptor expressed in CHO cells assessed as inhibition of THC-induced beta arrestin recruitment after 90 mins by beta-galactosidase based topcount luminescence analysis
REPORTED_PROPERTY: IC50

Record excerpt, results attached:
In [3]: df
Out[3]:
                    structure_smiles_string  result_value
0  Cn1c(=O)c2c(nc3n2CCN3c2ccc(O)cc2)n(C)c1=O       > 10 µM
1  COc1ccc(CCN2CCCn3c2nc2c3c(=O)n(C)c(=O)n2C)cc1OC       > 10 µM

Continue with the next molecule.
Answer with the recorded IC50 of `COc1ccc(CCN2CCCn3c2nc2c3c(=O)n(C)c(=O)n2C)cc1` only. > 10 µM

----------
TARGET_ENTITY: G-protein coupled receptor 55 (Homo sapiens)
TEST: Agonist activity at Prolink1-tagged human GPR55 receptor expressed in CHO cells assessed as induction of beta-arrestin recruitment at 10 uM after 90 mins by beta-galactosidase based topcount luminescence analysis relative to control
Type: cell-based
REPORTED_PROPERTY: Activity (%)
# output: bare number, implied unit %

Record excerpt, results attached:
                    structure_smiles_string                             target_entity  reported_property  result_value
0  CCCCCc1cc(O)c2c(c1)OC(C)(C)[C@@H]1CCC(C)=C[C@@H]21  G-protein coupled receptor 55 (Homo sapiens)           Activity            -4
1  COc1ccc(CCN2CCCn3c2nc2c3c(=O)n(C)c(=O)n2C)cc1OC  G-protein coupled receptor 55 (Homo sapiens)           Activity            15
2  COc1ccc(CCN2CCCn3c2nc2c3c(=O)n(C)c(=O)n2C)cc1  G-protein coupled receptor 55 (Homo sapiens)           Activity            -6

Answer with the recorded Activity of `C=C(C)[C@@H]1CCC(C)=C[C@H]1c1c(O)cc(O)cc1CCCCC` only. 7

Answer with the recorded Activity of `Cn1c(=O)c2c(nc3n2CCCN3CCc2c[nH]c3ccccc23)n(C)c1=O` only. -5

Answer with the recorded Activity of `COCCN1CCCn2c1nc1c2c(=O)n(C)c(=O)n1C` only. 18

Answer with the recorded Activity of `Cn1c(=O)c2c(nc3n2CCCN3CCc2ccc(Cl)cc2)n(C)c1=O` only. 10

Answer with the recorded Activity of `Cn1c(=O)c2c(nc3n2CCCN3Cc2ccc(Cl)cc2)n(C)c1=O` only. -9
